B1: TPR t1 (parent)
chain: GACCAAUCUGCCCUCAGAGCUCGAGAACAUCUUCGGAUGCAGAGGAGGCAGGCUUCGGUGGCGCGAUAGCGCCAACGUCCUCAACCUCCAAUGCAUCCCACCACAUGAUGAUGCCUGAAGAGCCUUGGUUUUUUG

Variants of: B1
Test: polymerase ribozyme fitness, log enrichment relative to wild type (log ratio); higher = more active; in vitro selection for triplet polymerase activity
Provide the recorded polymerase ribozyme fitness (log ratio) for the entries that follow.
One number for each entry.

Below are 7 variants. Give each one its polymerase ribozyme fitness (log ratio).
1. GACCAAUCUGCCCUCAGAGCUCGAGAACAUCUUCGGAUGCAGAGGAGGCAGGCUUCGAUGGCGCGAUAGCGCAAACGUCCUCAGCCUCCAAUGCAUCCCACCGCAUGAUGAUGCCUGAAGAGCGUUGGUUUUUUG [G58A C73A A84G A103G C124G]
2. GACCAAUCUGCCCUCAGAGCUCGAGAACAUCUUCGGAUGCAGAGGAGGCAGGCUUCGGUGGCGCGAUAGCGCCAACUCCCUCAACCGCCAAUGCAUCCCACCACAUGAUGAUGCCUGAAGUGCCUUGGUGUUUUG [G77U U78C U87G A121U U130G]
3. GACCAAUCUGCCCUCCGAGCUCGAGAACAUCUUCGGAUGCAGAGGAGGCAGGCUUCGGUGGCGCGAUAGCGCCAACGUUCUCAACCACCAAUGCAUCCCACCACAUGAUGAUGCCUGAAGAGCUUUGGUUUUUUG [A16C C79U U87A C124U]
4. GACCAAUCUGCCCUCAGAGCUCGAGAACAUCUUCGGAUGCAGAGGUGGCAGGCUUCGGUGGCGCGAUAGCGCCAACGUUCUUAACCUCCAAUGCAUCCCACCACAUGAUUAUGCCUGAAGAGCCUUGGUUUUUUA [A46U C79U C82U G110U G135A]
5. GACCAAUCUGCCCUCAGAGCUCGAGAACAUCUUCGGAUGCAGAGGAGUCAGGCUUCGGUGGCGCGAUAGCGCCAACGUCCUCAACCUCCAAUGCAUCCCAUCACAUGAUGAUGCCUGAAGAGCCUUGGUUUUUUG [G48U C101U]
6. GACCAAUCUGCCCUCAGAGCUCGAGAACAUCUUCGGAUGCAGAGGAGGCAGGCUACGGUGGCGCGAUAGCGCCAACGUCCUCGACCUCCAAUGCAUCCCACCACAUGAUGAUGCCUGAAGAGCCUUGGUUUUUUG [U55A A83G]
7. GACCAAUCUGCCCUCAGAGCUCGAGAACAUCUUCGGAUGCAGAGGAGGCAGGCAUCGGUGGCGCGAUAGCGCCAACGUCCUCAACUUCCAAUGCAUCCCACCACAUGAUGAUGCCUGAAGAGCUUUGGUUUUUUG [U54A C86U C124U]

1. -7.11
2. 2.02
3. -0.106
4. -3.2
5. -1.59
6. -0.95
7. 1.14

Below are 4 variants. Give each one its polymerase ribozyme fitness (log ratio).
1. GACCAAUCUGCCCUCAGAGAUCGAGAACAUCUUCGGAUGCAGAGGAGGCAGGCUUCGGUGGCGCGAUAGCGCCAACGUCCUCAACCUCCAAUGCAUCCCACCACAUGAUGAGGCCUGAAGAGCCUUGGUUUUUUG [C20A U112G]
2. GACCAAUCUGCCCUCAGAGCUCGAGAACAUCUUCGGAUGCAGAGGAGGCAGGCUUCGGUAGCGCGAUAGCGCCAACGUCCUCAACCUCCAUUGCAUCCCACCACAUGAUGAUGCCUGAAGAGCCUUGGUUUUUUG [G60A A91U]
3. GACCAAUCUGCCCUCAGAGCUCGAGAACAUCUUCGGAUGCAGAGGUGGCAGGCUUCGGUGGCGCGAUAGCUCCAACGUCCUCAACCUCUAAUGCAUCCCACCACAUGAUGAUGCAUGAAGAGCCUUGGUUUUUUG [A46U G71U C89U C115A]
4. GACCAAUCUCCCCUCAGAGCUCGAGAACAUCCUCGGAUGCAGAGGAGGCAGACUUCGGUGGCGCGAUAGCGCCAACGUCCUCAACCUCCAAUGCAUCCCACCACAUGAUGAAGCCUGAAGAGCCUUGAUUUUUUG [G10C U32C G52A U112A G128A]

1: -1.72; 2: -1.09; 3: -2.17; 4: -2.52

The measured values listed here are drawn from the RNAGym collection of RNA variant scans (doi:10.1073/pnas.2313332121).
